Target: 5-LO (Homo sapiens)
Assay: 5-LO product formation in intact human neutrophils stimulated with A23187 (cell-based)
Set-up: 5-LO product formation in intact human neutrophils; endogenous in cells; host or cells: freshly isolated human peripheral blood neutrophils
Conditions: residual activity at 10 µM; human neutrophils, A23187; mean ± SEM, 3–4 experiments; read-out: 5-LO Activity [% Control] cell-based
Quick reference for remaining activity at 10 µM among some compounds
The reply should contain only the number, in %.

Past entries and their recorded results:
compound="C[C@H]1[C@H](C)CC[C@]2(C)CC[C@]3(C)C(=CC(=O)[C@@H]4[C@@]5(C)CC[C@@H](OC(=O)CCC(=O)O)[C@](C)(C(=O)O)[C@@H]5CC[C@]43C)[C@H]12 [compound 23, 3-O-Succinoyl-11-keto-β-boswellic acid]" measurement_target="5-LO (Homo sapiens)" output_unit=% measurement=80.8
compound="CC(=O)O[C@@H]1CC[C@]2(C)C3=C(CC[C@H]2C1(C)C)[C@@]1(C)CC[C@@H]([C@H](CCC=C(C)C)C(=O)O)[C@]1(C)CC3 [compound 17]" measurement_target="5-LO (Homo sapiens)" output_unit=% measurement=75.5
compound="C=C(C)[C@@H]1CC[C@]2(C)CC[C@]3(C)[C@H](CC[C@@H]4[C@@]5(C)CC[C@@H](O)[C@](C)(C(=O)O)[C@@H]5CC[C@]43C)[C@@H]12 [compound 9]" measurement_target="5-LO (Homo sapiens)" output_unit=% measurement=36.2

Enter reported remaining activity at 10 µM observed with 5-LO (Homo sapiens) for CC(C)[C@@H]1CC[C@]2(C)[C@H](C(=O)C=C3[C@@H]4[C@@H](C)[C@H](C)CC[C@]4(C)CC[C@]32C)[C@@]1(C)CCC(=O)O [compound 7]
7.1

Enter reported remaining activity at 10 µM observed with 5-LO (Homo sapiens) for CC(C)=CCC[C@H](C(=O)O)[C@@H]1CC[C@]2(C)C3=C(CC[C@@]12C)[C@@]1(C)CC[C@@H](O)C(C)(C)[C@@H]1CC3 [compound 14]
3.1

---

Molecular target: cathepsin G (Homo sapiens, UniProt P08311)
Construct: purified cathepsin G (0.2 µg) from human neutrophils; purchased Calbiochem; host or cells: human neutrophils (natural source)
Sequence (P08311 21-244 limits assumed): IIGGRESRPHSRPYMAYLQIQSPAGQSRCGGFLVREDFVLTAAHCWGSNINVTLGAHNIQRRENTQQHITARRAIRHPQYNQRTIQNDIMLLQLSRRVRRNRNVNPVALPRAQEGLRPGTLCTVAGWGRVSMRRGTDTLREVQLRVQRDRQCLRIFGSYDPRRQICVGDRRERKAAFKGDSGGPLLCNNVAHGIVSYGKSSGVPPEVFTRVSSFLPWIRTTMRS
Assay: Cathepsin G activity in a cell-free assay (Suc-AAPF-pNA substrate)
Type: biochemical
Conditions: at 10 µM
metric.name: inhibition of cathepsin G

test_smiles=C[C@H]1[C@H](C)CC[C@]2(C)CC[C@]3(C)C(=CC(=O)[C@@H]4[C@@]5(C)CC[C@@H](OC(=O)C(=O)O)[C@](C)(C(=O)O)[C@@H]5CC[C@]43C)[C@H]12 metric_name="inhibition of cathepsin G" measurement="not active"
test_smiles=C[C@H]1[C@H](C)CC[C@]2(C)CC[C@]3(C)C(=CC(=O)[C@@H]4[C@@]5(C)CC[C@@H](OCC(=O)O)[C@](C)(C(=O)O)[C@@H]5CC[C@]43C)[C@H]12 metric_name="inhibition of cathepsin G" measurement="not active"
test_smiles=C[C@H]1[C@H](C)CC[C@]2(C)CC[C@]3(C)C(=CC(=O)[C@@H]4[C@@]5(C)CC[C@@H](OC(=O)CCC(=O)O)[C@](C)(C(=O)O)[C@@H]5CC[C@]43C)[C@H]12 metric_name="inhibition of cathepsin G" measurement="not active"

---

Target: 5-LO (Homo sapiens)
Sequence (P09917 1-674): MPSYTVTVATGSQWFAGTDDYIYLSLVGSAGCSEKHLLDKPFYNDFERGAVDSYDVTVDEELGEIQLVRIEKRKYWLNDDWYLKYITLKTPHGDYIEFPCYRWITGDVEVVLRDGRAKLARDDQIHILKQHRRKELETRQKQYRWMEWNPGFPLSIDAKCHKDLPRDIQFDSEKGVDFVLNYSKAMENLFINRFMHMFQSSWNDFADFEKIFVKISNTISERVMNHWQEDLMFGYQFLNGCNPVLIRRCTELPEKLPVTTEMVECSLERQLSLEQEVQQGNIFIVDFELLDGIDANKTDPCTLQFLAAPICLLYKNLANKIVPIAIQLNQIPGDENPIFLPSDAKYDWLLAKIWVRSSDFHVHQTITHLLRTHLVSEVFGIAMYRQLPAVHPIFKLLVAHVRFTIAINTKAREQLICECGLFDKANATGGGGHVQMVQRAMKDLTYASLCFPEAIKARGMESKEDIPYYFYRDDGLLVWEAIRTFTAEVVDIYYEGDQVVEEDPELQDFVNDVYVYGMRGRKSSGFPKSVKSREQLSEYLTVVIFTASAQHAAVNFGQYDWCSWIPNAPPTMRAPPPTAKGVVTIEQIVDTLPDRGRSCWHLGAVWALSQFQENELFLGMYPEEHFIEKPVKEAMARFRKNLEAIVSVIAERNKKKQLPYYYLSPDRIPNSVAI
Assay: 5-LO activity in a cell-free assay (isolated human recombinant 5-LO, 20 µM arachidonic acid)
Assay type: biochemical
Set-up: made in house; host or cells: Escherichia coli BL21 (pT3-5-LO plasmid)
Conditions: isolated human 5-LO, 20 µM arachidonic acid
metric.name: pIC50
The meaning of pIC50 here: minus log10 of the concentration in molar units.

test_smiles=C[C@H]1[C@H](C)CC[C@]2(C)CC[C@]3(C)C(=CC(=O)[C@@H]4[C@@]5(C)CC[C@@H](O)[C@](C)(C(=O)O)[C@@H]5CC[C@]43C)[C@H]12 measurement=5.34
test_smiles=C=C(C)[C@@H]1CC[C@]2(CO)CC[C@]3(C)[C@H](CC[C@@H]4[C@@]5(C)CC[C@@H](O)[C@](C)(C(=O)O)[C@@H]5CC[C@]43C)[C@@H]12 measurement=5.00
test_smiles=CC(=O)O[C@@H]1CC[C@@]2(C)[C@@H](CC[C@]3(C)[C@@H]2C(=O)C=C2[C@@H]4[C@@H](C)[C@H](C)CC[C@]4(C)CC[C@]23C)[C@@]1(C)C(=O)O measurement=5.52

Item C=C(C)[C@@H]1CC[C@]2(CO)CC[C@]3(C)[C@H](CC[C@@H]4[C@@]5(C)CC[C@@H](OC(C)=O)[C@](C)(C(=O)O)[C@@H]5CC[C@]43C)[C@@H]12 has what recorded pIC50?
5.08

Data origin: paper PMC6017322
